These data points were gathered from patent US20250361288A1.

# studyTarget: T1, human HVEM extracellular domain fused with an Fc fragment at the C-terminus (human, UniProt Q92956 39-202)
# T1 construct: extracellular domain; Bought; also called hHVEM; not shown: Fc fragment at the C-terminus
# T1 sequence (looked up): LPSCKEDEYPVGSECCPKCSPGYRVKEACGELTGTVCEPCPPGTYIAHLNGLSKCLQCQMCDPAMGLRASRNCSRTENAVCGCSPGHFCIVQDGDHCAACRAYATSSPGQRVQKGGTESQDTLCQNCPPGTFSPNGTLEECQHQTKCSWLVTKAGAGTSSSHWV
# assaySummary: ELISA on coated target-Fc
Classification by EC50 | ranges: class A = under 0.04 µg/mL, class B = from 0.04 µg/mL up to 0.08 µg/mL, class C = 0.08 µg/mL and over

Prompt: GET /class?item= LIGHT-26 (ligand, Printed mutations: S160H, L220S, E222Q; Soluble protein carries an N-terminal His tag) DGPAGSWEQLIQERRSHEVNPAAHLTGANSSLTGSGGPLLWETQLGLAFLRGLSYHDGALVVTKAGYYYIYSKVQLGGVGCPLGLAHTITHGLYKRTPRYPEELELLVSQQSPCGRATSSSRVWWDSSFLGGVVHLEAGEKVVVRVSDQRLVRLRDGTRSYFGAFMV
Completion: class B

Prompt: GET /class?item= LIGHT-34 (ligand, Printed mutations: T161S, L220S; Soluble protein carries an N-terminal His tag) DGPAGSWEQLIQERRSHEVNPAAHLTGANSSLTGSGGPLLWETQLGLAFLRGLSYHDGALVVTKAGYYYIYSKVQLGGVGCPLGLASSITHGLYKRTPRYPEELELLVSQQSPCGRATSSSRVWWDSSFLGGVVHLEAGEKVVVRVSDERLVRLRDGTRSYFGAFMV
Completion: class A

Prompt: GET /class?item= LIGHT-27 (ligand, Printed mutations: S160N, T161S, L220S, E222D; Soluble protein carries an N-terminal His tag) DGPAGSWEQLIQERRSHEVNPAAHLTGANSSLTGSGGPLLWETQLGLAFLRGLSYHDGALVVTKAGYYYIYSKVQLGGVGCPLGLANSITHGLYKRTPRYPEELELLVSQQSPCGRATSSSRVWWDSSFLGGVVHLEAGEKVVVRVSDDRLVRLRDGTRSYFGAFMV
Completion: class B

Prompt: GET /class?item= LIGHT-33 (ligand, Printed mutations: T161P, L220S; Soluble protein carries an N-terminal His tag) DGPAGSWEQLIQERRSHEVNPAAHLTGANSSLTGSGGPLLWETQLGLAFLRGLSYHDGALVVTKAGYYYIYSKVQLGGVGCPLGLASPITHGLYKRTPRYPEELELLVSQQSPCGRATSSSRVWWDSSFLGGVVHLEAGEKVVVRVSDERLVRLRDGTRSYFGAFMV
Completion: class A

Prompt: GET /class?item= LIGHT-18 (ligand, Soluble protein carries an N-terminal His tag) DGPAGSWEQLIQERRSHEVNPAAHLTGANSSLTGSGGPLLWETQLGLAFLRGLSYHDGALVITKAGYYYIYSKVQLGGVGCPLGQASTITHGLYKRTPRYPEELELLVSQQSPCGRATSSSRVWWDSSFLGGVVHLEAGEEVVVRVLDKRLVRLRDGTRSYFGAFMV
Completion: class B

Prompt: GET /class?item= LIGHT-46 (ligand, Printed mutations: L126M, K214E; Soluble protein carries an N-terminal His tag) DGPAGSWEQLIQERRSHEVNPAAHLTGANSSLTGSGGPLLWETQLGLAFLRGMSYHDGALVVTKAGYYYIYSKVQLGGVGCPLGLASTITHGLYKRTPRYPEELELLVSQQSPCGRATSSSRVWWDSSFLGGVVHLEAGEEVVVRVLDERLVRLRDGTRSYFGAFMV
Completion: class C

Prompt: GET /class?item= LIGHT-30 (ligand, Printed mutations: S160R, T161N, L220S; Soluble protein carries an N-terminal His tag) DGPAGSWEQLIQERRSHEVNPAAHLTGANSSLTGSGGPLLWETQLGLAFLRGLSYHDGALVVTKAGYYYIYSKVQLGGVGCPLGLARNITHGLYKRTPRYPEELELLVSQQSPCGRATSSSRVWWDSSFLGGVVHLEAGEKVVVRVSDERLVRLRDGTRSYFGAFMV
Completion: class C

Prompt: GET /class?item= LIGHT-16 (ligand, Printed mutations: Q117H, L158M, E213D; Soluble protein carries an N-terminal His tag) DGPAGSWEQLIQERRSHEVNPAAHLTGANSSLTGSGGPLLWETHLGLAFLRGLSYHDGALVVTKAGYYYIYSKVQLGGVGCPLGMASTITHGLYKRTPRYPEELELLVSQQSPCGRATSSSRVWWDSSFLGGVVHLEAGDKVVVRVLDERLVRLRDGTRSYFGAFMV
Completion: class B

Prompt: GET /class?item= LIGHT-14 (ligand, Soluble protein carries an N-terminal His tag) DGPAGSWEQLIQERRSHEVNPAAHLTGANSSLTGSGGPLLWESQLGLAFLRGLSYHDGALVVTKAGYYYIYSKVQLGGVGCPLGQASTITHGMYKRTPRYPEELELLVSQQSPCGRATSSSRVWWDSSFLGGVVHLEAGEKVVVRVLDERLVRLRDGTRSYFGAFMV
Completion: class A

Prompt: GET /class?item= LIGHT-22 (ligand, Printed mutations: S160G, T161S, L220S; Soluble protein carries an N-terminal His tag) DGPAGSWEQLIQERRSHEVNPAAHLTGANSSLTGSGGPLLWETQLGLAFLRGLSYHDGALVVTKAGYYYIYSKVQLGGVGCPLGLAGSITHGLYKRTPRYPEELELLVSQQSPCGRATSSSRVWWDSSFLGGVVHLEAGEKVVVRVSDERLVRLRDGTRSYFGAFMV
Completion: class B

Prompt: GET /class?item= LIGHT-36 (ligand, Printed mutations: H208Y; Soluble protein carries an N-terminal His tag) DGPAGSWEQLIQERRSHEVNPAAHLTGANSSLTGSGGPLLWETQLGLAFLRGLSYHDGALVVTKAGYYYIYSKVQLGGVGCPLGLASTITHGLYKRTPRYPEELELLVSQQSPCGRATSSSRVWWDSSFLGGVVYLEAGEKVVVRVLDERLVRLRDGTRSYFGAFMV
Completion: class C
